# Tested on: Septoria nodorum
# procedure_details: Wheat Glume Blotch (WGB) In Vitro
# Type: cell-based
# Parameters: key: 0: no inhibition of mycelial growth; 1: slight inhibition of mycelial growth; 2: moderate inhibition of mycelial growth; 3: strong inhibition of mycelial growth
# condition_description: 0.5 ppm, 4-6 days at 25° C.
# Protocol: A) Pathogen/Inoculum Production--The wheat glume blotch fungus, Septoria nodorum, is cultured on yeast/malt agar at 22° C. and 12 hours fluorescent light. Several sterile loops full of mature pycnidia produced on a 7 day old culture plates are added to 30 mls of 1/4 strength potato dextrose broth. […] D) Evaluation--After incubation, each well is visually assessed for growth inhibition on the following 0-3 scale: […]
Reported WGB In Vitro growth inhibition 0-3 scale values follow for various molecules
Reply with the value as a number alone.

Past entries and their recorded results:
Cn1cc(C(=O)Nc2ccccc2[C@@H]2CCC[C@@H](C(F)(F)F)C2)c(C(F)F)n1 (relative stereo): 0
Cn1cc(C(=O)Nc2ccccc2C2CCC(C)(C)CC2)c(C(F)F)n1: 2
CCO[C@H]1CC[C@H](c2ccccc2NC(=O)c2cn(C)nc2C(F)F)CC1: 0
CC[C@H]1CC[C@@H](c2ccccc2NC(=O)c2cn(C)nc2C(F)F)CC1: 3
Cn1cc(C(=O)Nc2ccccc2[C@H]2CC[C@H](C)CC2)c(C(F)(F)F)n1: 1

Entry under review: C[C@@H]1CCC[C@H](c2ccccc2NC(=O)c2cn(C)nc2C(F)F)C1 (relative stereo) . Reported WGB In Vitro growth inhibition 0-3 scale?
1

Entry under review: C[C@H]1CCC[C@H](c2ccccc2NC(=O)c2cn(C)nc2C(F)F)C1 (relative stereo) . Reported WGB In Vitro growth inhibition 0-3 scale?
0

Source of measurements: patent US5498624A
